- studyTarget: P-glycoprotein (UniProt P08183 1-1280)
- Sequence (P08183 whole entry): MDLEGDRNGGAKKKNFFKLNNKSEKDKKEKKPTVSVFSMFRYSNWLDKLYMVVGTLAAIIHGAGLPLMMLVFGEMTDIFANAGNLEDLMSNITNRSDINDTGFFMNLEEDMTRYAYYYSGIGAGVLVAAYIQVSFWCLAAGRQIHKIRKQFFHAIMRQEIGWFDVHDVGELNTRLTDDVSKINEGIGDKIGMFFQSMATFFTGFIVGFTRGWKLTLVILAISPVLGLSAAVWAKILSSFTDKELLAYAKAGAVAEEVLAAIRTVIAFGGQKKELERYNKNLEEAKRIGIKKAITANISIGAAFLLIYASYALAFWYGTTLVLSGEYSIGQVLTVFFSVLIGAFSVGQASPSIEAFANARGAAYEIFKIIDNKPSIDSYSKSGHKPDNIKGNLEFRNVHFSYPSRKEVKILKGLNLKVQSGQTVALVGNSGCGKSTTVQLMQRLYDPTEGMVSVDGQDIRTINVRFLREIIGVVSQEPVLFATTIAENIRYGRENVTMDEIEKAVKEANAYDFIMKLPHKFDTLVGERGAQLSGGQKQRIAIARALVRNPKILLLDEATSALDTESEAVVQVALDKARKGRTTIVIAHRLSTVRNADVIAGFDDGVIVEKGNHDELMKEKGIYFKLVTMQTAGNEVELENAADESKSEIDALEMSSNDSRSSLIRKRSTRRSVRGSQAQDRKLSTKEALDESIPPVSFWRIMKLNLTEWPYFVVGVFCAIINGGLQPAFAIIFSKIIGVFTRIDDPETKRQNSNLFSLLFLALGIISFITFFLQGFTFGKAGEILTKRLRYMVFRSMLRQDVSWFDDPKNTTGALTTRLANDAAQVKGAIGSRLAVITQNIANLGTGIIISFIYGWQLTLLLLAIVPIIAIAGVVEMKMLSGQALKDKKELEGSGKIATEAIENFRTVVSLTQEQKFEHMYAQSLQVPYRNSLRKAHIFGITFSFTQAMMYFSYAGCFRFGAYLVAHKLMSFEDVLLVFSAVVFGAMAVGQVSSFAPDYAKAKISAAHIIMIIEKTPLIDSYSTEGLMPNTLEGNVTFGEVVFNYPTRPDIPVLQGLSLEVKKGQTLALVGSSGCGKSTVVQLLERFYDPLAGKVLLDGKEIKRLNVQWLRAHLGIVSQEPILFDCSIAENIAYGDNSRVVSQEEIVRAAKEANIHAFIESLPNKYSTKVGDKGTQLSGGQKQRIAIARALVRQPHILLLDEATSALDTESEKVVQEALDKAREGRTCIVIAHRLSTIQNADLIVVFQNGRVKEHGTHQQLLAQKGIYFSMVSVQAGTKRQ
- testMethodNotes: cell-based or functional assay
No end group written: not given here.
# Enhancement ratio of Rhodamine-123 transport against the control, peptide 0.02 mg/ml values compiled below
reportedProperty: Enhancement ratio of Rhodamine-123 transport against the control, peptide 0.02 mg/ml (ratio)

[[record]]
binder = "Ac-AAAAAAK-NH2 [acetyl-AAAAAAK-CONH2]"
recordednumber = 0.9

[[record]]
binder = "KAAAAAA-NH2 [KAAAAAA-CONH2]"
recordednumber = 1

[[record]]
binder = "DAAAAAA-OH [DAAAAAA-COOH]"
recordednumber = 1.2

[[record]]
binder = "Ac-AAAAAAD-OH [acetyl-AAAAAAD-COOH]"
recordednumber = 0.9

